Experiment: qHTS assay to identify small molecule antagonists of the TGF-beta/Smad signaling pathway - cell viability counter screen (AID 1346824); also: nearly all actives have a fitted effect of over 50% in size
Details: SBE-bla HEK293T viability, CellTiter-Glo luminescence; series mostly up to 76.8 µM
Results filed as inconclusive are left out. The source made the active and inactive calls. Calls follow the shape of the dose curve; as a rule, active = well fitted cell-killing curve with a large enough effect in the repeat runs; inconclusive = weak or mixed curves; inactive = flat fitted curve, though single readings scatter.
reported.endpoint: outcome

# compound, reported.endpoint, observed
data = [
    ("O=C(O)CCCC(=O)O", "outcome", "inactive"),
    ("ClC/C=C/CCl", "outcome", "inactive"),
    ("CCc1cccc2c3c([nH]c12)C(CC)(CC(=O)O)OCC3 (centres undefined)", "outcome", "inactive"),
    ("CC[C@]12CCCN3CCc4c(n(c5ccccc45)[C@@](O)(C(=O)OC)C1)[C@@H]32", "outcome", "inactive"),
]

---

Assay: qHTS assay to identify small molecule agonists of the androgen receptor (AR) signaling pathway in the presence of an antagonist - cell viability counter screen (AID 1259379); also: nearly all actives have a fitted effect of over 25% in size
Conditions: MDA-kb2 viability, CellTiter-Fluor, 16 h; series mostly up to 92.4 µM
Records with an inconclusive call do not appear. Calls of active or inactive are those of the source. Calls come from the whole dose curve; as a rule, active = well fitted cell-killing curve with a large enough effect in the repeat runs; inconclusive = weak or mixed curves, or effect the other way; inactive = flat fitted curve, though single readings scatter.
Classes used: active, inactive

# molecule, class.name
rows = [
    ("Nc1ccc2c(O)cc(S(=O)(=O)O)cc2c1", "inactive"),
    ("CC1=CC(C)(C)Nc2ccccc21", "inactive"),
    ("COc1cc([C@H]2Oc3cc([C@H]4Oc5cc(O)cc(O)c5C(=O)[C@@H]4O)ccc3O[C@@H]2CO)ccc1O", "inactive"),
    ("CC(C)[N+](C)(CCOC(=O)C1c2ccccc2Oc2ccccc21)C(C)C", "inactive"),
    ("CC1(C)OC(=O)NC1=O", "inactive"),
    ("CC(C)(C)c1cccc(C(C)(C)C)c1O", "inactive"),
    ("COC(=O)C(C)Oc1ccc(Oc2ncc(C(F)(F)F)cc2Cl)cc1 (centres undefined)", "inactive"),
    ("C=CC(C)(O)CCC=C(C)C (centres undefined)", "inactive"),
    ("CC(C)[C@@H]1CC[C@@H](C)CC1=O", "inactive"),
    ("CC(=O)OC(C)C", "inactive"),
    ("C=C[Si](OCCOC)(OCCOC)OCCOC", "inactive"),
    ("O=C1OC2(c3ccccc31)c1cc(I)c(O)c(I)c1Oc1c2cc(I)c(O)c1I", "active"),
    ("c1ccc2c(c1)ccc1cc3c(ccc4ccccc43)cc12", "inactive"),
    ("[Na+]", "inactive"),
]

---

Target: Luciferin 4-monooxygenase (Photinus pyralis) (UniProt P08659)
Sequence (P08659 whole entry, looked up): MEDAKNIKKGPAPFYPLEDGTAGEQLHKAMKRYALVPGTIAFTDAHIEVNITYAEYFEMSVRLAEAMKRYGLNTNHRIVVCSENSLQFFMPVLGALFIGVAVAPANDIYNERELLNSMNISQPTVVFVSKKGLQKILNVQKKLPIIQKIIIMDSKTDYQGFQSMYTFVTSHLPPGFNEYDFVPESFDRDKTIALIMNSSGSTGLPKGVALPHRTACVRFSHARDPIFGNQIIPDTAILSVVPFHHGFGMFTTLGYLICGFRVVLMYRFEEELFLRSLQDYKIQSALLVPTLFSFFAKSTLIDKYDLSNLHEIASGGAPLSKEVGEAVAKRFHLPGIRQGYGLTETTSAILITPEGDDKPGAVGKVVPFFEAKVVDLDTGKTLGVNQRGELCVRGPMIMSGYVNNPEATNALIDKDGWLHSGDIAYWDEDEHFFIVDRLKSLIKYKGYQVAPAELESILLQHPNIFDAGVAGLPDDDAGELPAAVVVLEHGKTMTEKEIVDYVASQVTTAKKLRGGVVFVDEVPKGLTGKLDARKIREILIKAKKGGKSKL
Assay: qHTS assay to identify small molecule inhibitors of firefly luciferase (AID 1224835); also: nearly all actives have a fitted effect of over 25% in size
Conditions: purified P. pyralis luciferase, luminescence inhibition; series mostly up to 115 µM
Inconclusive results are not listed. The source made the active and inactive calls. Calls follow the shape of the dose curve; as a rule, active = well fitted inhibition curve with a large enough effect in the repeat runs; inconclusive = weak or mixed curves; inactive = flat fitted curve, though single readings scatter.
Outcome codes: label 1 = active, label 0 = inactive

# compound, class.name
measured = [
    ("C=CCOC(=O)C(=C)C", "label 0"),
    ("CC1(C)OC(=O)NC1=O", "label 0"),
    ("COC(=O)C(C)Oc1ccc(Oc2ncc(C(F)(F)F)cc2Cl)cc1 (centres undefined)", "label 0"),
    ("CCOC(=O)C(C)Oc1ccc(Oc2cnc3cc(Cl)ccc3n2)cc1 (centres undefined)", "label 0"),
    ("C=CCCCCCCCCCC", "label 0"),
    ("C=C[C@@]1(C)CC(=O)[C@]2(O)[C@@]3(C)[C@@H](O)CCC(C)(C)[C@@H]3[C@H](O)[C@H](OC(C)=O)[C@@]2(C)O1", "label 0"),
    ("Brc1nc2ccccc2s1", "label 1"),
    ("O=[Se](O)O", "label 0"),
    ("CC(C)[N+](C)(CCOC(=O)C1c2ccccc2Oc2ccccc21)C(C)C", "label 0"),
    ("CCCCCC1C(=O)CCC1CC(=O)OC (centres undefined)", "label 0"),
    ("FC(F)(F)C(Cl)Br (centres undefined)", "label 0"),
    ("CCCCCCCCCCC(CO)CCCCCCCC (centres undefined)", "label 0"),
    ("c1ccc2cc3ccccc3cc2c1", "label 0"),
    ("CCC/C=C/C=O", "label 0"),
    ("CCCCCCCC/C=C\\CCCCCCCC(=O)O", "label 1"),
    ("Clc1ccc(Sc2cc(Cl)c(Cl)cc2Cl)cc1", "label 0"),
    ("CCCCCCCCCCCCO", "label 1"),
    ("C=CC(=O)OCCCC", "label 0"),
    ("CCCCCC=O", "label 0"),
    ("COc1ccc(C(=O)c2ccccc2O)c(O)c1", "label 0"),
    ("C1CN(SSN2CCOCC2)CCO1", "label 0"),
    ("O=C(O)CCCCCCCCCCCC(=O)O", "label 0"),
    ("CC1=CC(C)(C)Nc2ccccc21", "label 0"),
    ("Nc1ccc(N)c(Cl)c1", "label 0"),
    ("CC/C=C\\C/C=C\\C/C=C\\CCCCCCCC(=O)O", "label 0"),
    ("CC(=O)Oc1ccc(C(c2ccc(OC(C)=O)cc2)c2ccccn2)cc1", "label 0"),
    ("CCc1cccc2c3c([nH]c12)C(CC)(CC(=O)O)OCC3 (centres undefined)", "label 0"),
    ("NCCOCCO", "label 0"),
    ("CC1(C)O[C@@H]2C[C@H]3[C@@H]4C[C@H](F)C5=CC(=O)C=C[C@]5(C)[C@@]4(F)[C@@H](O)C[C@]3(C)[C@]2(C(=O)CO)O1", "label 0"),
]
